Reference for the values: paper PMC11949107

target: human TRPV1 (Homo sapiens); construct: Life Technologies (cells); host or cells: Flp-In T-REx HEK-293; assay: Calcium 5 dye [Ca]i assay in HEK-293 Flp-In T-REx cells expressing TRPV1 (agonist response); format: cell-based; settings: 10 µM; HEK-293 TRPV1 cells; percentage of predrug baseline
Sequence (Q8NER1 whole entry): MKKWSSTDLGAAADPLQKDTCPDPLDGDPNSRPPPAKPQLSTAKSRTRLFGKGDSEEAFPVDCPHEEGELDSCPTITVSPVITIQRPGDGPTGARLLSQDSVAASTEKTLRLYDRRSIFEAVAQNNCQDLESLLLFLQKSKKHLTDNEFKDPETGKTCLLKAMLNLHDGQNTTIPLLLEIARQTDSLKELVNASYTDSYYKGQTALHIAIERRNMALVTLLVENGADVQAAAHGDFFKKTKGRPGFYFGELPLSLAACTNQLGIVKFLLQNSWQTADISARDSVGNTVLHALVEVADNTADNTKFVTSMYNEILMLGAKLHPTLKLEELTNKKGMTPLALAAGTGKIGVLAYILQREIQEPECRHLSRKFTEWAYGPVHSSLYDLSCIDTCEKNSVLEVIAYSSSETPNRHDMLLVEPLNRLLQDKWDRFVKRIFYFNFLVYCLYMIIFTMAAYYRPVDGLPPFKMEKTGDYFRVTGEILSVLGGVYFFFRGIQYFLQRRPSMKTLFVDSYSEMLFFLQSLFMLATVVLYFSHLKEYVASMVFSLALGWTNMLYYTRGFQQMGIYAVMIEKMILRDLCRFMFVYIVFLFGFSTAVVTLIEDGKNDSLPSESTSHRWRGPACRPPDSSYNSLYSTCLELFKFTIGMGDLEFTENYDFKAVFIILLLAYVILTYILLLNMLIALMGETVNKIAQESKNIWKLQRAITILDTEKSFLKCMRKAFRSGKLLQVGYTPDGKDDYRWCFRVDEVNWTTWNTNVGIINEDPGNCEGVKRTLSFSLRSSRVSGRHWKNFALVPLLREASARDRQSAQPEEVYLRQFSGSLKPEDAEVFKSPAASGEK
measuredEndpoint: Change of Ca5 fluorescence, Mean ± SEM, TRPV1 (10 µM) (%)

>>> measuredresult("COc1cc(CNC(=O)CCCC/C=C/C(C)C)ccc1O [Capsaicin]")
350
>>> measuredresult("CCCCC/C=C\\C/C=C\\CCCCCCCC(=O)OC(CO)CO [2-LG, 2-linoleoyl glycerol]")
41
>>> measuredresult("CC/C=C\\C/C=C\\C/C=C\\C/C=C\\C/C=C\\C/C=C\\CCC(=O)O [DHA, docosahexaenoic acid]")
11
>>> measuredresult("CCCCC/C=C\\C/C=C\\C/C=C\\CCCCC(=O)O [γ-LA, γ-linolenic acid]")
10
>>> measuredresult("CC/C=C\\C/C=C\\C/C=C\\C/C=C\\C/C=C\\C/C=C\\CCC(=O)NCCO [DHEA, docosahexaenoyl ethanolamide]")
266
>>> measuredresult("CCCCC/C=C\\C/C=C\\C/C=C\\C/C=C\\CCCC(=O)NCCO [AEA, anandamide]")
188
>>> measuredresult("CC/C=C\\C/C=C\\C/C=C\\C/C=C\\C/C=C\\CCCC(=O)NCCO [EPEA, eicosapentaenoyl ethanolamide]")
15
>>> measuredresult("CCCCC/C=C\\C/C=C\\C/C=C\\C/C=C\\CCCC(=O)OC(CO)CO [2-AG, 2-arachidonoylglycerol]")
30
